All figures here come from BindingDB's records for doi:10.1016/j.ejmech.2015.10.042.

Kindly state pEC50 for each of the entries shown.
# method-notes: Agonist activity at vitamin D3 receptor in human HL-60 cells assessed as induction of cell differentiation after 96 hrs by NBT dye-based microscopic analysis
One number for each entry, as −log10 of the molar value.

Below are worked cases with known answers.
CCn1c(C(=O)OCc2ccc(F)cc2)ccc1C(CC)(CC)c1ccc(OCC(=O)C(C)(C)C)c(C)c1; 5.02
CCn1c(C(=O)NCCN(C)C)ccc1C(CC)(CC)c1ccc(OCC(=O)C(C)(C)C)c(C)c1; 7.11
CCn1c(C(=O)NCC(OC)OC)ccc1C(CC)(CC)c1ccc(OCC(O)C(C)(C)C)c(C)c1 (configuration not stated); 6.82
C#CCNC(=O)c1ccc(C(CC)(CC)c2ccc(OCC(=O)C(C)(C)C)c(C)c2)n1CC; 5.66
C=CCN(C)C(=O)c1ccc(C(CC)(CC)c2ccc(OCC(=O)C(C)(C)C)c(C)c2)n1CC; 4.67

Take each entry in turn and give its pEC50.
1. CCn1c(C(=O)Oc2ccc(CC(=O)OC)cc2)ccc1C(CC)(CC)c1ccc(OCC(=O)C(C)(C)C)c(C)c1
2. CCn1c(C(=O)NCCBr)ccc1C(CC)(CC)c1ccc(OCC(O)C(C)(C)C)c(C)c1 (configuration not stated)

1: 5.63; 2: 6.89

Take each entry in turn and give its pEC50.
1. CCn1c(C(=O)NCCCN(C)C)ccc1C(CC)(CC)c1ccc(OCC(=O)C(C)(C)C)c(C)c1
2. C#CCNC(=O)c1ccc(C(CC)(CC)c2ccc(OCC(O)C(C)(C)C)c(C)c2)n1CC (configuration not stated)
3. CCn1c(C(=O)N(C)CCC#N)ccc1C(CC)(CC)c1ccc(OCC(O)C(C)(C)C)c(C)c1 (configuration not stated)

7.02
6.62
5.71

Take each entry in turn and give its pEC50.
1. CCn1c(C(=O)NCCCN2CCOCC2)ccc1C(CC)(CC)c1ccc(OCC(O)C(C)(C)C)c(C)c1 (configuration not stated)
2. C#CC(C)OC(=O)c1ccc(C(CC)(CC)c2ccc(OCC(=O)C(C)(C)C)c(C)c2)n1CC (configuration not stated)

7.74
6.68

Take each entry in turn and give its pEC50.
1. CCn1c(C(=O)Oc2ccc(CCO)cc2)ccc1C(CC)(CC)c1ccc(OCC(O)C(C)(C)C)c(C)c1 (configuration not stated)
2. CCn1c(C(=O)N[C@@H](C)CO)ccc1C(CC)(CC)c1ccc(OCC(O)C(C)(C)C)c(C)c1 (some centres not stated)
3. CCN(CC)CCNC(=O)c1ccc(C(CC)(CC)c2ccc(OCC(=O)C(C)(C)C)c(C)c2)n1CC
4. CCn1c(C(=O)NCC(OC)OC)ccc1C(CC)(CC)c1ccc(OCC(=O)C(C)(C)C)c(C)c1
5. CCn1c(C(=O)NCCN(C)C)ccc1C(CC)(CC)c1ccc(OCC(O)C(C)(C)C)c(C)c1 (configuration not stated)

5.29
8.07
7.04
6.89
7.85
